# Test system: Tetranychus urticae
# measurement-notes: Acaricidal activity against Tetranychus urticae (two-spotted spider mite) assessed as mite mortality at 50 ppm relative to untreated control
# Type: functional
measured-property: mortality at 50 ppm (%)
Give bare numbers, in %.

For orientation, consider the following solved cases.
CC(C)(C)C(Br)(Br)C(=O)Nc1nnc(C(F)(F)C(F)(F)C(F)(F)C(F)(F)F)s1: 100
CC(C)(C)C(Br)(Br)C(=O)Nc1nnc(C(F)(F)C(F)(F)F)s1: 100
CC(C)(C)C(Br)C(=O)Nc1nnc(C(F)(F)C(F)(F)F)s1 (stereo not given): 80
CC(C)(C)C(Br)(Br)C(=O)Nc1nnc(C(F)(F)F)s1: 100
CCCCCC(Br)C(=O)Nc1nnc(C(F)(F)F)s1 (stereo not given): 30

# per-item lookup of mortality at 50 ppm; items listed below
1. CC(C)(C)C(Br)(Br)C(=O)Nc1nnc(C(F)(F)C(F)(F)C(F)(F)F)s1
2. CC(C)(C)C(Cl)C(=O)Nc1nnc(C(F)(F)F)s1 (stereo not given)
3. CC(C)(C)C(Br)C(=O)Nc1nnc(C(F)(F)C(F)(F)C(F)(F)F)s1 (stereo not given)
4. CC(C)(C)C(Br)C(=O)Nc1nnc(C(F)(F)F)s1 (stereo not given)
5. CCC(C)C(Br)C(=O)Nc1nnc(C(F)(F)F)s1 (stereo not given)

Result block:
[80, 100, 30, 100, 80]

* * *

# Tested on: Tetranychus urticae
# measurement-notes: Acaricidal activity against Tetranychus urticae (two-spotted spider mite) assessed as mite mortality at 200 ppm relative to untreated control
# Format: functional
Provide the reported mortality at 200 ppm of each item.
Answers are plain numbers, in %.

CC(C)(C)C(Br)(Br)C(=O)Nc1nnc(C(F)(F)C(F)(F)F)s1: 100
CCC(C)C(Br)C(=O)Nc1nnc(C(F)(F)F)s1 (stereo unspecified): 100

Each molecule below has a recorded value; state its mortality at 200 ppm.
1. CC(C)(C)C(Br)C(=O)Nc1nnc(C(F)(F)F)s1 (stereo unspecified)
2. O=C(Nc1nnc(C(F)(F)F)s1)C(Br)C1CCCC1 (stereo unspecified)
3. CC(C)(C)C(Cl)C(=O)Nc1nnc(C(F)(F)F)s1 (stereo unspecified)
4. CC(C)(C)C(Br)C(=O)Nc1nnc(C(F)(F)C(F)(F)F)s1 (stereo unspecified)
5. CC(C)(C)C(Br)(Br)C(=O)Nc1nnc(C(F)(F)C(F)(F)C(F)(F)C(F)(F)F)s1
6. CCCCCC(Br)C(=O)Nc1nnc(C(F)(F)F)s1 (stereo unspecified)

Result block:
1. 100
2. 0
3. 100
4. 80
5. 100
6. 80

Would you be so kind as to report mortality at 200 ppm for each listed record?
1. CC(C)(C)C(Br)(Br)C(=O)Nc1nnc(C(F)(F)F)s1
2. CCCC(Br)C(=O)Nc1nnc(C(F)(F)F)s1 (stereo unspecified)

Result block:
[100, 0]

Query block: // Input: CC(C)(C)C(Br)(Br)C(=O)Nc1nnc(C(F)(F)C(F)(F)C(F)(F)F)s1 . Output its mortality at 200 ppm only.
Result block: 100

* * *

# System: Tetranychus urticae
# measurement-notes: Acaricidal activity against Tetranychus urticae (two-spotted spider mite) assessed as mite mortality at 200 ppm relative to untreated control
# Assay type: functional
Please provide measured mortality at 200 ppm for the entries that follow.
One number for each entry, in %.

CC(CC(Br)C(=O)Nc1nnc(C(F)(F)F)s1)C1CCCCC1 (stereo not drawn): 0
CC(C)C(Br)C(=O)Nc1nnc(C(F)(F)F)s1 (stereo not drawn): 30

Now turn to the next molecule.
Query block: Give the observed mortality at 200 ppm of CC(C)(C)C(Br)C(=O)Nc1nnc(C(F)(F)C(F)(F)C(F)(F)F)s1 (stereo not drawn) for Tetranychus urticae.
Result block: 30

The reported numbers originate from ChEMBL document CHEMBL3045534.
